- systemTested: PSGL-1(ECD)-hFc1 I121A protein (Sino Biological) (human)
- Sequence (chain, as listed by the source I121A I121A): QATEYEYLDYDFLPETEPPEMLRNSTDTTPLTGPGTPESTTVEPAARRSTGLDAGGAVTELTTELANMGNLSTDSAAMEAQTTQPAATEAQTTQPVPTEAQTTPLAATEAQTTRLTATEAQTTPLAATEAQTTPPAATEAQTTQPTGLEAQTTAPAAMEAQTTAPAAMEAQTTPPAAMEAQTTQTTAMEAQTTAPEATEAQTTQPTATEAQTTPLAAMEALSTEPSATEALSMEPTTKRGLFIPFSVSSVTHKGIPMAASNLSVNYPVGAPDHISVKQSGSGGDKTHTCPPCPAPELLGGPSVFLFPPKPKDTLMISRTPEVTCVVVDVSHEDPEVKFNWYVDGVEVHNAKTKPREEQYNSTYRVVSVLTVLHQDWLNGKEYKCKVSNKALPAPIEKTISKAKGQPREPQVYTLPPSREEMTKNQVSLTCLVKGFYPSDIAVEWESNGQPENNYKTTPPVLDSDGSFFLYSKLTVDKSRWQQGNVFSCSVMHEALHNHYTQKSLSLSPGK
- assayMethodText: ELISA, plate-bound peptide or protein
- Description: A typical ELISA experiment involved binding of a single concentration or serially diluted mAb in assay buffer (3% BSA in PBS containing 0.05% Tween®20, pH 7.4) onto BSA blocked high binding microtiter plate half-wells (Corning Cat. #3690), which contained PSGL-1 protein or streptavidin-immobilized biotin peptide. […]
Consider the following binders and their measured EC50 readings.
propertyMeasured: EC50

{"binder": "18F17 (antibody, V domains shown, Non-functional anti-PSGL-1 mAb (Verseau); only variable domains given) VH: QVTLKESGPGILQPSQTLSLTCSFSGFSLSTFGMGVGWIRQPSGKGLEWLAHIWWDDDKYYNPALKSRLTISKDTSKNQVFLKIANVDTADTATYYCAIYYDYGVGFDYWGQGTTLTVSS VL: DIVMTQAAPSVPVTPGESVSISCRSSKSLLHSNGYTFLYWFLQRPGQSPQLLIYRMSNLASGVPDRFSGSGSGTAFTLRISRVEAEDVGVYYCMQHLEYPFTFGTGTKLEIK", "testResult": "0.55 nM"}
{"binder": "15A7 (antibody, V domains shown, Control mAb, recombinant; also called h15A7; 15A17) VH: EVQLVESGGGLVQPGGSLRLSCAASGFTFSSFGMHWVRQAPGKGLEWVAYINGGSSTIFYANAVKGRFTISRDNAKNTLYLQMNSLRAEDTAVYYCARYASYGGGAMDYWGQGTLVTVSS VL: DIQMTQSPSSLSASVGDRVTITCRSSQSIVHNDGNTYFEWYQQKPGKAPKLLIYKVSNRFSGVPSRFSGSGSGTHFTLTISSLQPEDFATYYCFQGSYVPLTFGQGTKVEIK", "testResult": "~20 nM"}
{"binder": "19N05 (antibody, V domains shown, From mouse immunisation; only variable domains given) VH: QIQLVQSGPELKKPGETVKISCKASGYTFTTYGMSWVKQAPGKGLKWMGWINTYSGVPTFADDFKGRFAFSLETSASTAYLQINNLKNEDTATFFCARNYYGNHYFDYWGQGTTLTVSS VL: DVQITQSPSYLAASPGETISINCRASNNINKYLAWYQEKPGKTNKLLIYSGSTLQSGIPSRFSGSGSGTDFTLTISSLEPEDFAMYHCQQHNYYPLTFGAGTKLELK", "testResult": "0.53 nM"}
{"binder": "19L04 (antibody, IgG4, V domains shown, From mouse immunisation; only variable domains given) VH: QIQLVQSGPELKKPGETVKISCKASGYTFTTYGMSWVKQAPGKGLKWMGWINTYSGVPTYADDFKGRFAFSLETSASTAYLQINNLKIEDTATYFCARHYYGSHYFDYWGQGTTLTVSS VL: DIMMTQSPSSLAMSVGQKVTLRCKSSQSLLNSSNQKNYLAWYQQKPGQSPKLLVYFASTRESGVPVRFIGSGSGTDFTLTISSMQAEDLADYFCQQHYFSPLTFGAGTKLELK", "testResult": "0.97 nM"}
